Assay: Cytotoxicity against human primary prostate mesenchymal cells at 0.0003 to 100 uM after 48 hrs by ATPlite assay
Assay type: cell-based
Conditions: primary prostate mesenchymal cell
property: Activity

COc1cc([C@@H]2Oc3c(O)cc(-c4oc5cc(O)cc(O)c5c(=O)c4O)cc3[C@H]2CO)ccc1O: Toxic
COc1cc(-c2oc3c(O)cc(-c4oc5cc(O)cc(O)c5c(=O)c4O)cc3c2C)ccc1O: Toxic
COc1cc([C@@H]2Oc3c(O)cc([C@@H]4CC(=O)c5c(O)cc(O)cc5O4)cc3[C@H]2CO)ccc1O: Toxic

###

Experiment: Antiradical activity assessed as gallic acid equivalents of Foline-Ciocalteu reagent reducing capacity at 1 mM preincubated for 5 mins followed by Na2CO3 addition measured after 90 mins
Parameter: Activity. Scope: all listed entries.
property: Activity (equiv)

COc1cc(C2Oc3c(O)cc([C@H]4Oc5cc(O)cc(O)c5C(=O)[C@@H]4O)cc3C2CO)ccc1O (stereo partly drawn): 1.49
COc1cc([C@@H]2Oc3c(O)ccc([C@H]4Oc5cc(O)cc(O)c5C(=O)[C@@H]4O)c3[C@H]2CO)ccc1O: 1.74
COc1cc(-c2oc3c(O)cc(-c4oc5cc(O)cc(O)c5c(=O)c4O)cc3c2C)ccc1O: 2.13
COc1cc(-c2oc3c(O)cc([C@H]4Oc5cc(O)cc(O)c5C(=O)[C@@H]4O)cc3c2C)ccc1O: 1.74
COc1cc([C@@H]2Oc3c(O)cc(-c4oc5cc(O)cc(O)c5c(=O)c4O)cc3[C@H]2CO)ccc1O: 3.06
COc1cc(C2Oc3cc(-c4oc5cc(O)cc(O)c5c(=O)c4O)ccc3OC2CO)ccc1O (stereo not drawn) [DEHYDROSILYLBIN]: 1.29
COc1cc([C@@H]2Oc3c(O)cc([C@@H]4CC(=O)c5c(O)cc(O)cc5O4)cc3[C@H]2CO)ccc1O: 1.24
COc1cc(C2Oc3cc([C@H]4Oc5cc(O)cc(O)c5C(=O)[C@@H]4O)ccc3OC2CO)ccc1O (mixture of isomers): 0.92
